system: M. luteus MS2; assay: Pulldown binding assay, Langmuir isotherm fit, M. luteus; parameters: species or system Micrococcus luteus; details: maximum surface concentration from Langmuir fit
Criterion: Monolayer Concentration (N) strictly less than 0.1 Mol/m^2 × 0.0001. Met: YES. Not met: NO.

Worked set:
Orthogonal refinement 2A: orthogonal refined library peptide, SEQ ID NO:63 (IVVILSQQN; synthetic orthogonal refinement library peptide A2)    NO
In-plane refinement 3A: in-plane refined library peptide, SEQ ID NO:48 (LIERILQNL; synthetic in-plane refinement library peptide A3)    YES
In-plane refinement 1B: in-plane refined library peptide, SEQ ID NO:50 (IVSYVITQL; synthetic in-plane refinement library peptide B1)    NO
Pilot Library 3D: pilot library 9-mer, SEQ ID NO:29; became D1 of the in-plane matrix (SEQ ID NO:58) (VASYVATQV; synthetic pilot library peptide D3)    YES

Query: Report whether reported Monolayer Concentration (N) is lower than 0.1 Mol/m^2 × 0.0001 (strictly) for Orthogonal refinement 2C: orthogonal refined library peptide, SEQ ID NO:71 (IVSQVIQNL; synthetic orthogonal refinement library peptide C2)
Result: NO

Query: Report whether reported Monolayer Concentration (N) is lower than 0.1 Mol/m^2 × 0.0001 (strictly) for Pilot Library 4D: pilot library 9-mer, SEQ ID NO:30; corner of the in-plane matrix (SEQ ID NO:61) (VAKDVAERV; synthetic pilot library peptide D4)
Result: NO

Query: Report whether reported Monolayer Concentration (N) is lower than 0.1 Mol/m^2 × 0.0001 (strictly) for Orthogonal refinement 2B: orthogonal refined library peptide, SEQ ID NO:67 (IVVSQQILN; synthetic orthogonal refinement library peptide B2)
Result: NO

Query: Report whether reported Monolayer Concentration (N) is lower than 0.1 Mol/m^2 × 0.0001 (strictly) for Pilot Library 3C: pilot library 9-mer, SEQ ID NO:23; became A1 of the in-plane matrix (SEQ ID NO:46) (LISYILTQL; synthetic pilot library peptide C3)
Result: NO

---

system: S. aureus AM1; assay: Pulldown binding assay, Langmuir isotherm fit, S. aureus; parameters: species or system Staphylococcus aureus; details: association constant from Langmuir isotherm fit, fluorescein-labeled peptide 0-100 μM
quantity_kind: Langmuir Affinity (Ka) (M^−1 × 10000)
Just the number in M^−1 × 10000, nothing appended.

Query: Consider the substance shown here: Pilot Library 4C: pilot library 9-mer, SEQ ID NO:24; became A4 of the in-plane matrix (SEQ ID NO:49) (LIKDILERL; synthetic pilot library peptide C4) What is its recorded Langmuir Affinity (Ka)?
Result: 5

Query: Consider the substance shown here: Pilot Library 4D: pilot library 9-mer, SEQ ID NO:30; corner of the in-plane matrix (SEQ ID NO:61) (VAKDVAERV; synthetic pilot library peptide D4) What is its recorded Langmuir Affinity (Ka)?
Result: 5

Query: Consider the substance shown here: Orthogonal refinement 2A: orthogonal refined library peptide, SEQ ID NO:63 (IVVILSQQN; synthetic orthogonal refinement library peptide A2) What is its recorded Langmuir Affinity (Ka)?
Result: 13

Query: Consider the substance shown here: Pilot Library 3D: pilot library 9-mer, SEQ ID NO:29; became D1 of the in-plane matrix (SEQ ID NO:58) (VASYVATQV; synthetic pilot library peptide D3) What is its recorded Langmuir Affinity (Ka)?
Result: 6

Query: Consider the substance shown here: Pilot Library 3C: pilot library 9-mer, SEQ ID NO:23; became A1 of the in-plane matrix (SEQ ID NO:46) (LISYILTQL; synthetic pilot library peptide C3) What is its recorded Langmuir Affinity (Ka)?
Result: 5.6

Query: Consider the substance shown here: Orthogonal refinement 2C: orthogonal refined library peptide, SEQ ID NO:71 (IVSQVIQNL; synthetic orthogonal refinement library peptide C2) What is its recorded Langmuir Affinity (Ka)?
Result: 1.1
